Test system: human hepatocyte growth factor receptor mRNA
test readout: inhibition of human hepatocyte growth factor receptor expression

[[record]]
substance = "ISIS 155097: 2′-MOE gapmer, phosphorothioate backbone, sequence cctcggtcagaaattgggaa (antisense CCTCGGTCAGAAATTGGGAA; all phosphorothioate, sugars by position and methylation of C not given here; 2'-MOE gapmer)"
observed_result = "at least 35%"

[[record]]
substance = "ISIS 209548: 2′-MOE gapmer, phosphorothioate backbone, sequence tcaagaagccctcaatattt (antisense TCAAGAAGCCCTCAATATTT; all phosphorothioate, sugars by position and methylation of C not given here; 2'-MOE gapmer)"
observed_result = "at least 35%"

[[record]]
substance = "ISIS 155127: 2′-MOE gapmer, phosphorothioate backbone, sequence gatctggttgaactattact (antisense GATCTGGTTGAACTATTACT; all phosphorothioate, sugars by position and methylation of C not given here; 2'-MOE gapmer)"
observed_result = "at least 35%"

